biological target: Spike RBD (SARS-CoV-2, UniProt P0DTC2 SEQ:1-223); assay: filter
measured-parameter: pKd
Numbers only, as −log10 of the molar value.

Kindly note the recorded pKd for CCTTGGGATACTATGCGTCCGACCGCTCGGACGGAGAAGG (ssDNA, Y=Tyr-dU, p=Nap-dC; printed …pYAYGpGYppGAppGpYpGGApGGAGAAGG [Tyr-dU: 9,12,14,18,27; Nap-dC: 11,16,19,20,23,24,26,28,32]) [26874-29_4 (SL1111)] , which is 9.52

The measurements presented in this section are drawn from patent US20240218374.
